Items are presented alongside their recorded ratio to parent.
B1: FLAG-tagged KIR2DL3, full-length, wild type, on 293T cells [human] / HLA-C*03:04-GL9 tetramer (phycoerythrin-conjugated) [modified: biotin (enzymatically, with biotin ligase)] [human] (parent complex)
chain 1: HEGVHRKPSLLAHPGPLVKSEETVILQCWSDVRFQHFLLHREGKFKDTLHLIGEHHDGVSKANFSIGPMMQDLAGTYRCYGSVTHSPYQLSAPSDPLDIVITGLYEKPSLSAQPGPTVLAGESVTLSCSSRSSYDMYHLSREGEAHERRFSAGPKVNGTFQADFPLGPATHGGTYRCFGSFRDSPYEWSNSSDPLLVSVTGNPSNSWPSPTEPSSETGNPRHLHVLIGTSVVIILFILLLFFLLHRWCCNKKNAVVMDQEPAGNRTVNREDSDEQDPQEVTYAQLNHCVFTQRKITRPSQRPKTPPTDIIVYTELPNAEP
chain 2: not shown
chain 3: not shown
chain 4: GAVDPLLAL

- Variants of: B1
- procedure summary: flow cytometry, HLA tetramer staining of transfected 293T cells; percentage tetramer+ normalised to percentage FLAG+; read off a plot

1. chain 1 S132A = ~1.2
2. chain 1 D183A = ~0.05
3. chain 1 E106A = ~0.82
4. chain 1 E21A = ~0.92
5. chain 1 Y105A = ~0.02

Task: Can you share its ratio to parent? I mean this variant: chain 1 F45A
Output: ~0.04

Task: # lookup: ratio to parent of chain 1 D72A
Output: ~1

Task: Need ratio to parent, item chain 1 L104A
Output: ~0.05

Task: Report ratio to parent for chain 1 D135A please.
Output: ~0.1

Task: Looking for the measured ratio to parent of chain 1 S133A , can you help?
Output: ~0.57

Task: Please report the recorded ratio to parent for chain 1 M70A .
Output: ~1.1

Task: Param item = chain 1 K44A ; retrieve measured ratio to parent.
Output: ~0.6
